Could you please report measured inhibition for the items listed next?
Assay: PAX8 transcriptional activity inhibition in RMG-I – RMG-I cells, luciferase, single concentration, primary screen (AID 652154);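 also: luciferase light reporting Pax8 driven TPO promoter activity; plate controls were median of neutral control wells for no effect and mitoxantrone controls for full effect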
Details: RMG-I TPO-luciferase reporter, SteadyGlo, 24 h; at 12.6 µM; stronger effect = higher value
In all, about 360,000 compounds went through this assay and about 4,200 (1.2%) were called active. Only a selection was taken, and actives are over-represented in it overall.
State just the number; it will be interpreted in %.

Input C[C@H](CO)N1C[C@H](C)[C@H](CN(C)CC2CC2)Oc2cc(-c3ccc(F)cc3)ccc2S1(=O)=O . Output inhibition: -2.31

compound OCCCNc1nccc(-c2cc(Nc3cccc(Cl)c3)ncn2)n1 , inhibition observed: 107

Measured inhibition of CC(C)CC1NC(=O)c2cc(Cl)ccc2-n2c1nc1ccccc1c2=O (configuration not stated) : 6.69

Item: C=CC[C@@H](CC(=O)N[C@H](CO)Cc1ccccc1)C(=O)N[C@@H](COC(=O)[C@@H](CC=C)Cc1ccc(F)cc1)Cc1c[nH]c2ccccc12 | inhibition: 25.6

Record CC(C)NC(=O)N1C[C@H]2[C@@H](c3ccccc31)[C@H](CO)N2C(=O)c1ccccc1F . Reported inhibition: -9.19

Short answer for O=C(COC(=O)/C=C/c1cccc(Cl)c1)NCc1cccs1 : inhibition was 6.69

inhibition for O=C(CCOc1ccccc1)NCc1ccccc1 is -18.5
